target: human recombinant dopamine D4.2 receptor (Homo sapiens, UniProt P21917, DEL265-296); construct: expressed in transfected cells; membranes; test: Receptor binding assay, D4.2 dopamine receptor ([3H]spiperone competition)
Sequence (P21917 with tags, fused parts or gaps DEL265-296): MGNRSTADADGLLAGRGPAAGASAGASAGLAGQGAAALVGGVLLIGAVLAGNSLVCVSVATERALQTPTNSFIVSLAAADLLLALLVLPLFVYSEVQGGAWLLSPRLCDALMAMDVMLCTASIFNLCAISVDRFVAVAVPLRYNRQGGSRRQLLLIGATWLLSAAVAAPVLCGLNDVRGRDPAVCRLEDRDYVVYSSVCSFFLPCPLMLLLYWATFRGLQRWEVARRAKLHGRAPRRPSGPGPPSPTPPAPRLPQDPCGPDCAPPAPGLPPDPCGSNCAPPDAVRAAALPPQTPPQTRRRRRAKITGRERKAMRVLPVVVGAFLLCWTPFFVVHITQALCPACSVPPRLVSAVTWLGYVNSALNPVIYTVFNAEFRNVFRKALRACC
Where a name gives a salt, the structure may show the parent alone.
readout: Ki (nM)

1. COc1ccc(OCCNCCCOc2ccccc2)cc1 [Example 9d, hydrochloride]    5.4
2. Brc1ccc(OCCCNCCOc2ccccc2)cc1 [Example 16i, hydrochloride]    6.1
3. Cc1ccc(OCCCNCCOc2ccc(Cl)cc2)cc1 [Example 3e, hydrochloride]    5.6

----------
target: human recombinant dopamine D4.2 receptor (Homo sapiens, UniProt P21917, DEL265-296); construct: expressed in transfected cells; membranes; experiment: Receptor binding assay, D4.2 dopamine receptor ([3H]spiperone competition)
Where a name gives a salt, the structure may show the parent alone.
readout: Ki (nM)

Field: example entries. Status: answers known.
1. c1ccc(OCCCNCCOc2ccc(-c3ccccc3)cc2)cc1 [Example 2e, hydrochloride]    383
2. Cc1ccc(OCCNCCCOc2ccc(Br)cc2)cc1 [Example 3b, hydrochloride]    26.9

(P) Clc1ccc(OCCNCCCSc2ccccc2)cc1 [Example 4f, hydrochloride]
(Q) Brc1ccc(OCCCNCCCOc2ccc(Br)cc2)cc1 [Example 4a, hydrochloride]
(R) O=[N+]([O-])c1ccc(OCCNCCCOc2ccccc2)cc1 [Example 2a, hydrochloride]
Output the entries ranked by Ki from maximum down to minimum. Would you mind listing the labels in the order asked for? Q, R, P

(a) Cc1ccc(OCCCNCCOc2ccc(C)cc2)cc1 [Example 3, hydrochloride]
(b) Fc1ccc(OCCCNCCOc2ccc(Cl)cc2)cc1 [Example 4h, hydrochloride]
(c) Cc1ccc(OCCNCCOc2ccc(C)cc2)cc1 [Example 6e, hydrochloride]
(d) COc1ccc(OCCCNCCCOc2ccc(OC)cc2)cc1 [Example 1q, hydrochloride]
Arrange items by their Ki values in increasing order. Would you mind listing the labels in the order asked for? b, a, c, d
(b: 0.84 nM, a: 11.4 nM, c: 74.9 nM, d: 1330 nM)
